# assay_info: xn = mol fraction of the nth substance listed
# conditions_used: 298.15 K; 103 kPa; x1 = 0.6
measured_quantity: viscosity (mPa·s)
Kindly answer with a numeric value in mPa·s, unit omitted.

Sample records with viscosity:
{"compound": "C[Si]1(C)O[Si](C)(C)O[Si](C)(C)O[Si](C)(C)O1 + CCCCCCCCCCCC", "viscosity / mPa·s": 1.554}
{"compound": "C[Si]1(C)O[Si](C)(C)O[Si](C)(C)O[Si](C)(C)O1 + CCCCCCCCCCCCCC", "viscosity / mPa·s": 1.824}
{"compound": "C[Si]1(C)O[Si](C)(C)O[Si](C)(C)O[Si](C)(C)O1 + CCCCCCCCCC", "viscosity / mPa·s": 1.292}

Please look at the following compound next.
Consider the compound C[Si]1(C)O[Si](C)(C)O[Si](C)(C)O[Si](C)(C)O1 + CCCCCCCCCCCCC and give its measured viscosity.
1.69

* * *

# conditions_used: 303.15 K; 101.3 kPa
measured_quantity: viscosity (mPa·s)
Kindly answer with a numeric value in mPa·s, unit omitted.

{"chemical_string": "ClCCCl", "viscosity, mPa·s": 0.73}
{"chemical_string": "CCCCCCCC[n+]1ccccc1.F[B-](F)(F)F", "viscosity, mPa·s": 171.9}
{"chemical_string": "ClCCl", "viscosity, mPa·s": 0.394}

Please look at the following compound next.
Consider the compound CCC[N+](C)(C)C.O=S(=O)([N-]S(=O)(=O)C(F)(F)F)C(F)(F)F and give its measured viscosity.
63.2

* * *

# assay_info: xn = mol fraction of the nth substance listed
# conditions_used: 308.15 K; 103 kPa; x1 = 0.95
measured_quantity: viscosity (mPa·s)
Kindly answer with a numeric value in mPa·s, unit omitted.

{"compound": "C[Si]1(C)O[Si](C)(C)O[Si](C)(C)O[Si](C)(C)O1 + CCCCCCCCCCCCC", "measured_quantity": "viscosity", "units_of_measure": "mPa·s", "recorded_value": 1.659}
{"compound": "C[Si]1(C)O[Si](C)(C)O[Si](C)(C)O[Si](C)(C)O1 + CCCCCCCCCC", "measured_quantity": "viscosity", "units_of_measure": "mPa·s", "recorded_value": 1.61}
{"compound": "C[Si]1(C)O[Si](C)(C)O[Si](C)(C)O[Si](C)(C)O1 + CCCCCCCCCCCC", "measured_quantity": "viscosity", "units_of_measure": "mPa·s", "recorded_value": 1.652}

Please look at the following compound next.
Consider the compound C[Si]1(C)O[Si](C)(C)O[Si](C)(C)O[Si](C)(C)O1 + CCCCCCCCCCCCCC and give its measured viscosity.
1.672

* * *

# conditions_used: 323.15 K; 101 kPa
measured_quantity: log10 viscosity (log10 of the value in mPa·s)
Give log10 of viscosity, with viscosity taken in mPa·s.

Sample records with log10 viscosity:
{"chemical_string": "CCCn1cc[n+](C)c1C.F[B-](F)(F)F", "log10 viscosity": 1.97}
{"chemical_string": "CCCCCC[n+]1ccn(C)c1.[I-]", "log10 viscosity": 2.45}
{"chemical_string": "ClCCCl", "log10 viscosity": -0.24}
{"chemical_string": "CCOC=O", "log10 viscosity": -0.51}

Please look at the following molecule next.
Consider the molecule O=S(=O)(O)O and give its measured log10 viscosity.
1.10
